# target.or.system: T1, recombinant human PDGF-CC active core domain protein with terminal histidine tag (human, UniProt Q9NRA1 231-345)
# T1 construct: Made in baculovirus-infected Sf9 cells; The position of the tag in the chain is not known; also called RhPC; RhPCc; not shown: terminal histidine tag
# T1 sequence (Q9NRA1 231-345 limits assumed): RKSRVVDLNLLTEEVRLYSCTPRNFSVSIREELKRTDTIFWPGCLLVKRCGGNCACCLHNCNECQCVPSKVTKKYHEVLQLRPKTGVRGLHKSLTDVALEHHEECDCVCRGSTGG
# method.description: SPR, BIAcore 2000, His-tagged PDGF-CC on Ni-NTA chip, antibody as analyte, 1:1 Langmuir fit (apparent)
Label Fulfilled when koff < 0.0006 s⁻¹; otherwise Not fulfilled.

{"binder": "chimeric anti-PDGF-CC antibody 6B3 (ch6B3) (antibody, V domains shown, also called chimeric 6B3; mouse-human chimeric antibody 6B3) VH: QVQLQQSGVEVARPGASVKLSCKASGYTFGSYGITWVRQRTGQGLEWIGEIYPRSGKTYYNEKFKGKATLTADTSSSTVYMELRSLTSEDSAVYFCAREGYGYDGGYFDYWGQGTTLTVSS VL: DIVMTQSPSSLAMSVGQKVTMSCKSSQSLLNSRNQKNYLAWYQQKPGQSPKLLVYFASTRESGVPDRFTGSGSGTDFTLTISSVQAEDLAVYYCQQHYSTPLTFGAGTKLELKR", "label.class": "Fulfilled"}
{"binder": "monoclonal antibody 6B3 (antibody, mouse IgG2a, V domains shown, The variable domains are identical to those of 19C7; also called mu6B3; murine 6B3) VH: QVQLQQSGVEVARPGASVKLSCKASGYTFRSYGITWVRQRTGQGLEWIGEIYPRSGKTYYNEKFKGKATLTADTSSSTVYMELRSLTSEDSAVYFCAREGYGYDGGYFDYWGQGTTLTVSS VL: DIVMTQSPSSLAMSVGQKVTMSCKSSQSLLNSRNQKNYLAWYQQKPGQSPKLLVYFASTRESGVPDRFTGSGSGTDFTLTISSVQAEDLAVYYCQQHYSTPLTFGAGTKLELKR", "label.class": "Not fulfilled"}

Is it true that koff reported for monoclonal antibody 12F5 (antibody, mouse IgG2a, V domains shown, Murine IgG2a, kappa light chain; also called anti-PDGF-CC mAb 12F5) VH: EVKLEESGGGLVQPGGSRELSCEGSGFTFSGFWMSWVRQTPGKTLEWIGDINSDGSAIIYAPSIKDRFTIFRDNDKSTLYLQMNNVRSEDTATYFCMRWGYYGSNYFDYWGQGTTLTVSS VL: DVVMTQTPLSLPVSLGDQASISCRSSQSIVHSNGNTYLHWYLQKPGQSPKLLIYRVSNRFSGVPDRFSGSGSGTDFTLKISRVEAEDMGVYYCFQGTHVPFTFGSGTKLEIKR is less than 0.0006 s⁻¹?
Fulfilled

Okay, and monoclonal antibody 19C7 (antibody, mouse IgG2a, V domains shown, Murine IgG2a, kappa light chain) VH: QVQLQQSGVEVARPGASVKLSCKASGYTFRSYGITWVRQRTGQGLEWIGEIYPRSGKTYYNEKFKGKATLTADTSSSTVYMELRSLTSEDSAVYFCAREGYGYDGGYFDYWGQGTTLTVSS VL: DIVMTQSPSSLAMSVGQKVTMSCKSSQSLLNSRNQKNYLAWYQQKPGQSPKLLVYFASTRESGVPDRFTGSGSGTDFTLTISSVQAEDLAVYYCQQHYSTPLTFGAGTKLELKR ?
Not fulfilled

Okay, and monoclonal antibody 11F5 (antibody, mouse IgG2a, V domains shown, Murine IgG2a, kappa light chain) VH: QVQLQQSGAELARPGASVKLSCKASGYIFISYGISWVKQRTGQGLEWIGEIYPRSGKTYYNEKFKDKAALTADKSSSIAYMELRSLTSEDSAVYFCAREGYGYDGGYFDYWGQGTILTVSS VL: DIVMTQSPSSLAMSVGQKVAVSCKSSQSLLNSSNQKNYLAWYQQKPGQSPKLLVYFASTRDSGVPDRFTGSGSGTDFTLTISSVQAEDLAVYYCQQHYSTPLTFGAGTKLELKR ?
Fulfilled
